Entries and their pKd values follow.
target: T1, HCV [1a.1] NS5A PRR peptide (Hepatitis C virus genotype 1a (strain 1)); assay: ITC; 450 or 300 uM NS5A PRR peptide (syringe) titrated to 30 uM ASPP CTD or SH3 domain (cell), 12 °C, 25 mM HEPES pH 7.5, 150 mM NaCl, 500 uM TCEP; 25 steps of 10 ul; AB hetero association model (SEDPHAT); settings: both partners purified
T1 construct: source: synthetic peptide, custom made (TUCF)
Keep it numeric: pKd is minus log10 of the concentration in mol/L.

The examples below pair each entry with its known result.
LASP1 SH3 domain (205-261) (domain or fragment) KRYRAVYDYSAADEDEVSFQDGDTIVNVQQIDDGWMYGTVERTGDTGMLPANYVEAI = 5.64
Lyn SH3 domain (65-122) (domain or fragment) GDIVVALYPYDGIHPDDLSFKKGEKMKVLEEHGEWWKAKSLLTKKEGFIPSNYVAKLN = 5.29
ASPP1 C-terminal domain (887-1090) (domain or fragment, also called ASPP1 CTD) NPLALLLDASLEGEFDLVQRIIYEVEDPSKPNDEGITPLHNAVCAGHHHIVKFLLDFGVNVNAADSDGWTPLHCAASCNSVHLCKQLVESGAAIFASTISDIETAADKCEEMEEGYIQCSQFLYGVQEKLGVMNKGVAYALWDYEAQNSDELSFHEGDALTILRRKDESETEWWWARLGDREGYVPKNLLGLYPRIKPRQRTLA = 5.03
ASPP2 C-terminal domain (925-1128) (domain or fragment, also called ASPP2 CTD) NPLALLLDSSLEGEFDLVQRIIYEVDDPSLPNDEGITALHNAVCAGHTEIVKFLVQFGVNVNAADSDGWTPLHCAASCNNVQVCKFLVESGAAVFAMTYSDMQTAADKCEEMEEGYTQCSQFLYGVQEKMGIMNKGVIYALWDYEPQNDDELPMKEGDCMTIIHREDEDEIEWWWARLNDKEGYVPRNLLGLYPRIKPRQRSLA = 6.63

// recorded pKd for Grb2 SH3 domain (1-58) (domain or fragment) MEAIAKYDFKATADDELSFKRGDILKVLNEECDQNWYKAELNGKDGFIPKNYIEMKPH : 5.10

Recorded values, source paper PMC7615710.
